The reported measurements were obtained from the supplement of paper PMC11061612.

Reported Bliss excess is given for each of the following compounds.
- System: SK-MG-1 (Low Grade Glioma)
- PROCEDURE_SUMMARY: Bliss excess, mean over the matrix (fraction); higher = more synergy;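 also: after 72 h of two-drug dosing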

| COMPOUND | Bliss excess |
| --- | --- |
| CN(CCO)CC[C@H](CSc1ccccc1)Nc1ccc(S(=O)(=O)NC(=O)c2ccc(N3CCC([C@@H](O)c4ccccc4-c4ccc(Cl)cc4)CC3)cc2)cc1S(=O)(=O)C(F)(F)F [AZD4320] + C=CCn1c(=O)c2cnc(Nc3ccc(N4CCN(C)CC4)cc3)nc2n1-c1cccc(C(C)(C)O)n1 [AZD1775] (first compound max 1 µM, partner max 1 µM) | 0.064 |

Looking up C[C@@H]1COCCN1c1cc(C2([S@](C)(=N)=O)CC2)nc(-c2ccnc3[nH]ccc23)n1 [AZD6738] + O=C(c1cc(Cc2n[nH]c(=O)c3ccccc23)ccc1F)N1CCN(C(=O)C2CC2)CC1 [Olaparib] (first compound max 10 µM, 7x7, partner max 10 µM) , I see its Bliss excess listed as 0.0121

###

- Tested on: NCI-H2591 (Mesothelioma)
- PROCEDURE_SUMMARY: Bliss excess, mean over the matrix (fraction); higher = more synergy
ASSAY_ENDPOINT: Bliss excess
Form: value (number only, do not type unit).

Look over these answered cases.
| MOLECULE | ASSAY_ENDPOINT | MEASURED |
| --- | --- | --- |
| Cc1c2c(nn1C)CSCc1cc(n(C)n1)CSc1cc(c3ccccc3c1)OCCCc1c(C(=O)O)n(C)c3c-2c(Cl)ccc13 [AZD5991] + CC1(C)CCC(CN2CCN(c3ccc(C(=O)NS(=O)(=O)c4ccc(NCC5CCOCC5)c([N+](=O)[O-])c4)c(Oc4cnc5[nH]ccc5c4)c3)CC2)=C(c2ccc(Cl)cc2)C1 [Venetoclax] (first compound max 1 µM, 7x7, partner max 1 µM) | Bliss excess | -0.0252 |
| CC1(C)CCC(CN2CCN(c3ccc(C(=O)NS(=O)(=O)c4ccc(NCC5CCOCC5)c([N+](=O)[O-])c4)c(Oc4cnc5[nH]ccc5c4)c3)CC2)=C(c2ccc(Cl)cc2)C1 [Venetoclax] + C1CN(CCC1(C(=O)N[C@@H](CCO)C2=CC=C(C=C2)Cl)N)C3=NC=NC4=C3C=CN4 [Capivasertib] (first compound max 1 µM, 7x7, partner max 3 µM) | Bliss excess | -0.0453 |
| CN(CCO)CC[C@H](CSc1ccccc1)Nc1ccc(S(=O)(=O)NC(=O)c2ccc(N3CCC([C@@H](O)c4ccccc4-c4ccc(Cl)cc4)CC3)cc2)cc1S(=O)(=O)C(F)(F)F [AZD4320] + CN(C)CCCOc1ccc(-c2ccc3ncc4c(c3c2)n(C2CCOCC2)c(=O)n4C)cn1 [AZD0156] (first compound max 1 µM, 7x7, partner max 1 µM) | Bliss excess | -0.0508 |

// next entry
Lookup result for CCN(CCO)CCCOc1ccc2c(Nc3cc(CC(=O)Nc4cccc(F)c4)[nH]n3)ncnc2c1 [AZD2811] + C[C@@H]1COCCN1C2=NC(=NC(=C2)C3(CC3)[S@](=N)(=O)C)C4=C5C=CNC5=NC=C4 [AZD6738] (first compound max 1 µM, 7x7, partner max 10 µM) ; measured Bliss excess: -0.0338

###

Each item that follows carries a reported Bliss excess.
- Tested on: NCI-H2066 (Squamous Cell Lung Carcinoma)
- PROCEDURE_SUMMARY: Bliss excess, mean over the matrix (fraction); higher = more synergy
# print the numeric value only

Known results for compounds:
| COMPOUND | Bliss excess |
| --- | --- |
| COc1nnc2ccc(N3CCC(c4ccc(OCCN5CCN(C)C(=O)[C@H]5C)cc4)CC3)nn12 [AZD5153] + Cc1c2c(nn1C)CSCc1cc(n(C)n1)CSc1cc(c3ccccc3c1)OCCCc1c(C(=O)O)n(C)c3c-2c(Cl)ccc13 [AZD5991] (first compound max 1 µM, 7x7, partner max 1 µM) | -0.0569 |
| Cc1c2c(nn1C)CSCc1cc(n(C)n1)CSc1cc(c3ccccc3c1)OCCCc1c(C(=O)O)n(C)c3c-2c(Cl)ccc13 [AZD5991] + CS(=O)(=O)CCNCc1ccc(-c2ccc3ncnc(Nc4ccc(OCc5cccc(F)c5)c(Cl)c4)c3c2)o1 [Lapatinib] (first compound max 1 µM, 7x7, partner max 10 µM) | -0.0195 |
| COc1cc2c(cc1OCCCCCOc1cc3c(cc1OC)C(=O)N1C=C(C)C[C@H]1C=N3)N=C[C@@H]1CC(C)=CN1C2=O [SG3199] + O=C(c1cc(Cc2n[nH]c(=O)c3ccccc23)ccc1F)N1CCN(C(=O)C2CC2)CC1 [Olaparib] (first compound max 0.001 µM, 7x7, partner max 10 µM) | -0.0457 |
| COc1nnc2ccc(N3CCC(c4ccc(OCCN5CCN(C)C(=O)[C@H]5C)cc4)CC3)nn12 [AZD5153] + CCN(CCO)CCCOc1ccc2c(Nc3cc(CC(=O)Nc4cccc(F)c4)[nH]n3)ncnc2c1 [AZD2811] (first compound max 1 µM, 7x7, partner max 1 µM) | -0.0352 |
| Cc1c2c(nn1C)CSCc1cc(n(C)n1)CSc1cc(c3ccccc3c1)OCCCc1c(C(=O)O)n(C)c3c-2c(Cl)ccc13 [AZD5991] + CN(C)CCCOc1ccc(-c2ccc3ncc4c(c3c2)n(C2CCOCC2)c(=O)n4C)cn1 [AZD0156] (first compound max 1 µM, 7x7, partner max 1 µM) | -0.0084 |
| NC1(C(=O)N[C@@H](CCO)c2ccc(Cl)cc2)CCN(c2ncnc3[nH]ccc23)CC1 [Capivasertib] + CCN(CCO)CCCOc1ccc2c(Nc3cc(CC(=O)Nc4cccc(F)c4)[nH]n3)ncnc2c1 [AZD2811] (first compound max 10 µM, 7x7, partner max 1 µM) | -0.0641 |
| N#Cc1cnc(Nc2cc(NC[C@H]3CNCCO3)c(C(F)(F)F)cn2)cn1 [SRA737] + CCc1c2c(nc3ccc(O)cc13)-c1cc3c(c(=O)n1C2)COC(=O)[C@]3(O)CC [SN-38] (first compound max 10 µM, 7x7, partner max 0.3 µM) | -0.0192 |
| C=CCn1c(=O)c2cnc(Nc3ccc(N4CCN(C)CC4)cc3)nc2n1-c1cccc(C(C)(C)O)n1 [AZD1775] + C1CN(CCC1(C(=O)N[C@@H](CCO)C2=CC=C(C=C2)Cl)N)C3=NC=NC4=C3C=CN4 [Capivasertib] (first compound max 3 µM, partner max 3 µM) | -0.0567 |

Form field Bliss excess, entry Cc1cc2ncnn2cc1Nc1ncc2c(n1)n(C1CCOCC1)c(=O)n2C [AZD7648] + C[C@@H]1COCCN1C2=NC(=NC(=C2)C3(CC3)[S@](=N)(=O)C)C4=C5C=CNC5=NC=C4 [AZD6738] (first compound max 10 µM, 7x7, partner max 10 µM) : 0.025

Noted for Cc1cc2ncnn2cc1Nc1ncc2c(n1)n(C1CCOCC1)c(=O)n2C [AZD7648] + COc1cc([C@@H]2c3cc4c(cc3[C@@H](O[C@@H]3O[C@@H]5CO[C@@H](C)O[C@H]5[C@H](O)[C@H]3O)[C@H]3COC(=O)[C@H]23)OCO4)cc(OC)c1O [Etoposide] (first compound max 10 µM, 7x7, partner max 10 µM) : its Bliss excess reads -0.03

Quick note, Bliss excess for COc1nnc2ccc(N3CCC(c4ccc(OCCN5CCN(C)C(=O)[C@H]5C)cc4)CC3)nn12 [AZD5153] + Cn1cnc2c(F)c(Nc3ccc(Br)cc3Cl)c(C(=O)NOCCO)cc21 [Selumetinib] (first compound max 1 µM, 7x7, partner max 10 µM) landed at -0.0123

Record summary for C[C@@H]1COCCN1c1cc(C2([S@](C)(=N)=O)CC2)nc(-c2ccnc3[nH]ccc23)n1 [AZD6738] + O=C(c1cc(Cc2n[nH]c(=O)c3ccccc23)ccc1F)N1CCN(C(=O)C2CC2)CC1 [Olaparib] (first compound max 10 µM, 7x7, partner max 10 µM) : reported Bliss excess = -0.0682

Looking up CN(CCO)CC[C@H](CSc1ccccc1)Nc1ccc(S(=O)(=O)NC(=O)c2ccc(N3CCC([C@@H](O)c4ccccc4-c4ccc(Cl)cc4)CC3)cc2)cc1S(=O)(=O)C(F)(F)F [AZD4320] + CCN(CCO)CCCOc1ccc2c(Nc3cc(CC(=O)Nc4cccc(F)c4)[nH]n3)ncnc2c1 [AZD2811] (first compound max 1 µM, 7x7, partner max 1 µM) , I found its Bliss excess recorded as -0.0391
